Overview of recorded Ratio for various molecules
# study-target: ATP-dependent translocase ABCB1 (Homo sapiens)
# Sequence (P08183 whole entry): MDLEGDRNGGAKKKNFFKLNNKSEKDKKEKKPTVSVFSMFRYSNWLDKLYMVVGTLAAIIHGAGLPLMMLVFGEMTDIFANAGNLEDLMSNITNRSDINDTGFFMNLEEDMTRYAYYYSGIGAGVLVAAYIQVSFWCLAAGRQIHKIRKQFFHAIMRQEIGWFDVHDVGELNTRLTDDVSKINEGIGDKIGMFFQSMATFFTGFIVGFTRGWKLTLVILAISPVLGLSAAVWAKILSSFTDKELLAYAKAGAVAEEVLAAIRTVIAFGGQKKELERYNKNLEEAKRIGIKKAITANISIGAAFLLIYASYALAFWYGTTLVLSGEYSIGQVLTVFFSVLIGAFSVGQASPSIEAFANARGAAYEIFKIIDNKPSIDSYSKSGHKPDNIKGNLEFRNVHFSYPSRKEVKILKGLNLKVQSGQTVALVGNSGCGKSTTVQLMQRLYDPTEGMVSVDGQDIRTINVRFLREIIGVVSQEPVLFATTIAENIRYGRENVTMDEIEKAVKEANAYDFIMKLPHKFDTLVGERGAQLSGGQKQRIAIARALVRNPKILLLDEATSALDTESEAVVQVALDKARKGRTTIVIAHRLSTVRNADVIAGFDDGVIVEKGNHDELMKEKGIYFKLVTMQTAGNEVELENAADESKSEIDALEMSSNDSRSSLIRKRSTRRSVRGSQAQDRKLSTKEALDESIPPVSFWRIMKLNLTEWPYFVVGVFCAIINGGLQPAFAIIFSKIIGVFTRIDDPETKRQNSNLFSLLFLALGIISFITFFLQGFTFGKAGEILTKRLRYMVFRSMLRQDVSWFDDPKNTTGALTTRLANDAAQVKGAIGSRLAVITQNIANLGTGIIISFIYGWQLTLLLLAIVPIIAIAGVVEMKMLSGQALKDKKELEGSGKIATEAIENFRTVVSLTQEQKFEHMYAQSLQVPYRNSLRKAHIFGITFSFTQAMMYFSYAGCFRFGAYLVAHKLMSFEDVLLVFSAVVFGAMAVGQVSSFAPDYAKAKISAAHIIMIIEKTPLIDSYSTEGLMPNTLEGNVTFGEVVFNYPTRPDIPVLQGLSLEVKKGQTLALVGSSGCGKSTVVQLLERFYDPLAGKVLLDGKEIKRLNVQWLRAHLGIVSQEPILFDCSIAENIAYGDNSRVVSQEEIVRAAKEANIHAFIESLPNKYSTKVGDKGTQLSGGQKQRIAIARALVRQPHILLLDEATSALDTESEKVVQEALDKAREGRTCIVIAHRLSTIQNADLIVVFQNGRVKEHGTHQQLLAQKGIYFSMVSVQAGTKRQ
# measurement-protocol: Inhibition of human ABCB1 expressed in mouse L5178Y cells assessed as fluorescence activity ratio at 2 uM pretreated for 10 mins followed by rhodamine-123 addition after 20 mins by flow cytometry
# Format: cell-based
Number only, no unit.

Check out these entries, answers already filled in.
{"columns": ["cpd-smiles", "Ratio"],
 "data": [
  ["CC[C@@H]1CN(C)[C@H]2Cc3c([nH]c4ccccc34)[C@@H](O)C[C@H]1[C@@H]2C(=O)OC", 0.88],
  ["CC[C@@H]1CN(C)[C@H]2Cc3c([nH]c4ccccc34)C(=O)C[C@H]1[C@@H]2C(=O)OC", 0.77],
  ["CC[C@H]1CN(C)[C@H]2Cc3c([nH]c4ccccc34)/C(=N/N)C[C@H]1[C@@H]2C(=O)OC", 1.93],
  ["CC[C@H]1CN(C)[C@H]2Cc3c([nH]c4ccccc34)C(=O)C[C@H]1[C@@H]2C(=O)OC", 1.79],
  ["CC[C@H]1CN(C)[C@H]2Cc3c([nH]c4ccccc34)/C(=N/NC(=O)OCc3ccc(OC)cc3)C[C@H]1[C@@H]2C(=O)OC", 31.88]
]}

Tell me the measured Ratio of CC[C@H]1CN(C)[C@H]2Cc3c(n(C(=O)c4cccc(C)c4)c4ccccc34)C(=O)C[C@H]1[C@@H]2C(=O)OC , please. 0.95

----------
# study-target: ATP-dependent translocase ABCB1 (Homo sapiens)
# measurement-protocol: Inhibition of human ABCB1 expressed in mouse L5178Y cells assessed as increase in rhodamine-123 accumulation by measuring side scatter count of cells at 20 uM pretreated for 10 mins followed by rhodamine-123 addition after 20 mins by flow cytometry (reference value: 903)
# Assay type: cell-based
quantity: Activity

Past entries and their recorded results:
{"columns": ["cpd-smiles", "reported-measurement"],
 "data": [
  ["CC[C@H]1CN(C)[C@H]2Cc3c([nH]c4ccccc34)/C(=N/O)C[C@H]1[C@@H]2C(=O)OC", 912],
  ["CC[C@H]1CN(C)[C@H]2Cc3c([nH]c4ccccc34)/C(=N/NC(=O)OCc3ccc(OC)cc3)C[C@H]1[C@@H]2C(=O)OC", 746],
  ["CC[C@H]1CN(C)[C@H]2Cc3c([nH]c4ccccc34)[C@@H](O)C[C@H]1[C@@H]2C(=O)OC", 797]
]}

Please turn your attention to the following entry.
Give its Activity value. Item: CC[C@H]1CN(C)[C@H]2Cc3c([nH]c4ccccc34)C(=S)C[C@H]1[C@@H]2C(=O)OC 1226

----------
# study-target: UniProt P08183
# measurement-protocol: Inhibition of human ABCB1 expressed in mouse L5178Y cells assessed as increase in rhodamine-123 accumulation by measuring forward scatter count of cells at 20 uM pretreated for 10 mins followed by rhodamine-123 addition after 20 mins by flow cytometry (reference value: 2206)
# Assay type: cell-based
quantity: Activity
Answer with a bare number; do not write a unit.

Solved cases below.
{"columns": ["cpd-smiles", "study-target", "Activity"],
 "data": [
  ["CC[C@@H]1CN(C)[C@H]2Cc3c([nH]c4ccccc34)[C@@H](OC(=O)C34CC5CC(CC(C5)C3)C4)C[C@H]1[C@@H]2C(=O)OC", "UniProt P08183", 2442],
  ["CC[C@H]1CN(C)[C@H]2Cc3c([nH]c4ccccc34)/C(=N/N)C[C@H]1[C@@H]2C(=O)OC", "UniProt P08183", 2162],
  ["CC[C@H]1CN(C)[C@H]2Cc3c([nH]c4ccccc34)/C(=N/NC(=O)OCc3ccc(OC)cc3)C[C@H]1[C@@H]2C(=O)OC", "UniProt P08183", 2278],
  ["CC[C@@H]1CN(C)[C@H]2Cc3c([nH]c4ccccc34)/C(=N/Nc3ccc(Br)cn3)C[C@H]1[C@@H]2C(=O)OC", "UniProt P08183", 2225],
  ["CC[C@H]1CN(C)[C@H]2Cc3c(n(Cc4ccccc4)c4ccccc34)C(=O)C[C@H]1[C@@H]2C(=O)OC", "UniProt P08183", 2449]
]}

Any idea what Activity was measured for C/C=C/C(=O)O[C@H]1C[C@@H]2[C@@H](CC)CN(C)[C@@H](Cc3c1[nH]c1ccccc31)[C@H]2C(=O)OC ? 2447

# get_value(readout='Activity', item= CC[C@@H]1CN(C)[C@H]2Cc3c([nH]c4ccccc34)/C(=N/O)C[C@H]1[C@@H]2C(=O)OC ) 2304

Value lookup for Activity; key = CC[C@H]1CN(C)[C@H]2Cc3c([nH]c4ccccc34)/C(=N/Nc3ccccc3)C[C@H]1[C@@H]2C(=O)OC 2158
